Experiment: clinical
Conditions: human, in vivo, 10 mg, AUCinf, mean
readout.kind: AUC(0-inf)

Input line: Requested field: AUC(0-inf). Item: CC(C)c1nc(N(C)S(C)(=O)=O)nc(-c2ccc(F)cc2)c1/C=C/[C@@H](O)C[C@@H](O)CC(=O)O [rosuvastatin, reference compound]
Output line: 51.7 ng·h/mL

###

Experiment: clinical
Settings: human, in vivo, AUCinf, geometric mean
readout.kind: AUC(0-inf) (ng·h/mL)
The figure you give is taken to be in ng·h/mL; do not add the unit.

Input line: Requested field: AUC(0-inf). Item: CC(C)c1nc(N(C)S(C)(=O)=O)nc(-c2ccc(F)cc2)c1/C=C/[C@@H](O)C[C@@H](O)CC(=O)O [rosuvastatin, reference compound]
Output line: 46.6

###

Assay: clinical
Conditions: human, in vivo, 10 mg, AUClast, mean
readout.kind: AUC(0-t) (ng·h/mL)
The figure you give is taken to be in ng·h/mL; do not add the unit.

Input line: Requested field: AUC(0-t). Item: CC(C)c1nc(N(C)S(C)(=O)=O)nc(-c2ccc(F)cc2)c1/C=C/[C@@H](O)C[C@@H](O)CC(=O)O [rosuvastatin, reference compound]
Output line: 44.5

###

Assay: clinical
Conditions: human, in vivo, AUClast, geometric mean
readout.kind: AUC(0-t) (µg·h/mL)
The figure you give is taken to be in µg·h/mL; do not add the unit.

Input line: Requested field: AUC(0-t). Item: CC(C)c1nc(N(C)S(C)(=O)=O)nc(-c2ccc(F)cc2)c1/C=C/[C@@H](O)C[C@@H](O)CC(=O)O [rosuvastatin, reference compound]
Output line: 0.038
